Target: recombinant hAChE (Homo sapiens, UniProt P22303)
Construct: made in house
Sequence (P22303 32-614): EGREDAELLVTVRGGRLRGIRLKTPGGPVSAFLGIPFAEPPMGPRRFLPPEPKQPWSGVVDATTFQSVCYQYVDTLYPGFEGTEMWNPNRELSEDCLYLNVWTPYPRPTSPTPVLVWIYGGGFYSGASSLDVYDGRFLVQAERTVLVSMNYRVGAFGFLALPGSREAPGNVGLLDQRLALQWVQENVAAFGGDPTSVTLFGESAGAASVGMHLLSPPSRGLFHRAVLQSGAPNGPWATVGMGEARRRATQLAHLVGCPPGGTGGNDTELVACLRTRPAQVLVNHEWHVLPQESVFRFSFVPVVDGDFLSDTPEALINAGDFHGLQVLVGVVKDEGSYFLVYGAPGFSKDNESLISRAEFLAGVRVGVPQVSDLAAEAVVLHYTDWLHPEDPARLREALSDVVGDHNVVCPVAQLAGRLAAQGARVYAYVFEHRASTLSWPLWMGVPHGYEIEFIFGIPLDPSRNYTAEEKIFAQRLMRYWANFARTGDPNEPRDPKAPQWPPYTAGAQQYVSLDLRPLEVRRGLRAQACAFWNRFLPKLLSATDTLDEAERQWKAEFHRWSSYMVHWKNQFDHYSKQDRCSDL
Experiment: biochemical
observable: IC50
Be sure to follow the number with its unit.

Return value of IC50 for input CCN1CCCC1CNC(=O)c1cc([N+](=O)[O-])c(N(C)C)cc1OC (stereo not shown) [Compound C5685] , no commentary.
1300 nM

====

Biological target: recombinant hAChE (Homo sapiens)
Construct: made in house
Experiment: biochemical
Conditions: hits with determined crystal structures; mean ± standard deviation of 2–5 determinations; read-out: IC50
observable: pIC50
As a rule, pIC50 stands for the negative log10 of the concentration, concentration in M.

Sample records with pIC50:
COc1ccc(C(=O)NC(=S)Nc2ccc(N3CCN(C)CC3)cc2)cc1[N+](=O)[O-]	6.27
CCN(CC)CCCNc1oc(-c2ccc(Cl)cc2)nc1C#N	4.67
CCN(CC)CCCNc1c([N+](=O)[O-])c(=O)n(C)c2ccccc12	5.70

Now for the compound whose pIC50 we want.
Provide pIC50, system recombinant hAChE (Homo sapiens), entry COC(=O)CSc1nc(C)c(C)c(C)c1C#N
4.44

Values compiled from paper PMC3227566.
